These data points were gathered from patent US5017618A.

assay: In vivo distribution-metabolism in ocular tissues of rabbits; conditions: rabbit, iris-ciliary body, topical or ocular, 1 %, Concentration of propranolol
Value Type: concentration at 0.5 h (ng/g)
Numbers only; they are read as ng/g.

Qu. Returns the measured concentration at 0.5 h for the input compound. Input: CC(C)NCC(O)COc1cccc2ccccc12 (stereo not shown)
Ans. 8050

* * *

assay: In vivo distribution-metabolism in ocular tissues of rabbits; settings: rabbit, aqueous humor, topical or ocular, 1 %, Tissue concentration
Value Type: concentration at 0.5 h
Answer format: number, then unit.

Qu. Please report the recorded concentration at 0.5 h for `CC(C)NCC(COc1cccc2ccccc12)=NO` .
Ans. 820 ng/g

Qu. # concentration at 0.5 h lookup, item CC(C)NCC(O)COc1cccc2ccccc12 (centres unmarked)
Ans. 40 ng/g

* * *

Test: In vivo distribution-metabolism in ocular tissues of rabbits
Details: rabbit, cornea, topical or ocular, 1 %, Concentration of propranolol
Procedure: Adult male New Zealand albino rabbits weighing 2.5-3.5 kg were used. Standard doses of 100 μl of 1% solution of the drugs in saline solution were administered topically to both eyes of each rabbit. After appropriate time intervals (30, 60 and 120 minutes), the animals were sacrificed. […] Aqueous humor was analyzed as such without any further dilution. Aliquots of 5-20 μl of the 10% tissue homogenate samples were analyzed by HPLC.
Value Type: concentration at 0.5 h (ng/g)
Field: numeric (ng/g). Do not append units.

Qu. Record request: concentration at 0.5 h value, item CC(C)NCC(O)COc1cccc2ccccc12 (stereo not shown)
Ans. 47100

* * *

assay: In vivo distribution-metabolism in ocular tissues of rabbits; conditions: rabbit, iris-ciliary body, topical or ocular, 1 %, Tissue concentration
Value Type: concentration at 2 h (ng/g)
The response must be a number in ng/g with no trailing unit.

Qu. // lookup concentration at 2 h for CC(C)NCC(O)COc1cccc2ccccc12 (stereo not shown)
Ans. 430

* * *

test system: resting heart rate of rats; test: Effect on resting heart rate in rats; assay type: in vivo, rat (male Sprague-Dawley); conditions: 6 mg/kg i.v. (Example 6)
Where a name gives a salt, the structure may show the parent alone.
Value Type: activity on resting heart rate (negative chronotropic action)

[[record]]
compound = "CC(C)NCC(COc1cccc2ccccc12)=NO.Cl [Propranolone oxime HCl 6a]"
assay_result = "highest activity"

[[record]]
compound = "CC(C)(C)NCC(COc1cccc2c1CCC(=O)N2)=NO [Compound 6c, Hydrochloride]"
assay_result = "less active"

[[record]]
compound = "CC(C)(C)NCC(COc1nsnc1N1CCOCC1)=NO.O=C(O)C(=O)O [Timolone oxime oxalate 6b]"
assay_result = "highest activity"

[[record]]
compound = "CC(C)NCC(COc1nsnc1N1CCOCC1)=NO.Cl [Compound 6d]"
assay_result = "less active"


* * *

experiment: In vivo distribution-metabolism in ocular tissues of rabbits; conditions: rabbit, iris-ciliary body, topical or ocular, 1 %, Tissue concentration
Property: concentration at 0.5 h; scope: individual compounds
// return numeric value only (unit: ng/g, not printed)

[[record]]
compound = "CC(C)NCC(COc1cccc2ccccc12)=NO [propranolone oxime 5a]"
assay_result = 7790


Qu. Could you tell me which concentration at 0.5 h is on file for CC(C)NCC(O)COc1cccc2ccccc12 (centres unmarked) [Propranolol 1a] ?
Ans. 2110
